# test_target: SGK2 (human)
# assay_remarks: split-luciferase competition binding
# conditions: compound 10.0 µM
# inhibition listing for each entry below
The reply must contain the numeric value and, after it, the unit.

Would you please look over these solved cases?
CC(C)[C@H](CO)Nc1nc(Nc2ccc(C(=O)O)c(Cl)c2)c2ncn(C(C)C)c2n1 = 0%
N#C/C(=C(/N)Sc1ccc(N)cc1)c1ccccc1C(F)(F)F = 0%
O=C1NC(=O)c2c1c1c3ccccc3n3c1c1c2c2ccccc2n1C1CCC3O1 = 87%
CC(C)[C@H](CO)Nc1nc(Nc2cc(N)cc(Cl)c2)c2ncn(C(C)C)c2n1 = 2%
C/C(O)=C(\C#N)C(=O)Nc1cc(Br)ccc1Br = 0%
COc1cc2ncnc(Nc3ccc(F)c(Cl)c3)c2cc1OCCCN1CCOCC1 = 0%
O=C(NC(NC(=S)Nc1ccc(F)c([N+](=O)[O-])c1)C(Cl)(Cl)Cl)C(c1ccccc1)c1ccccc1 (stereo not given) = 3%
CC(C)[C@H](CO)Nc1nc(Nc2cccc(Cl)c2)c2ncn(C(C)C)c2n1 = 0%

State the recorded inhibition for this entry: N#CC(=C(\N)Sc1ccccc1N)/C(C#N)=C(/N)Sc1ccccc1N 0%

State the recorded inhibition for this entry: COc1cc(CC2C(=O)OC[C@@H]2Cc2ccc(OC)c(OC)c2)ccc1O (stereo not given in full) 7%

These measurements were taken from the kinase profiling compilation of Christmann-Franck et al. (2016).
